Test system: U2OS
Assay: cell viability relative to DMSO; higher = less toxic
Conditions: 72 h; 1 nM
measured parameter: cell viability (%)
Respond numerically; units are % and should not be typed.

// below: answered compounds
compound | study target | cell viability [%]
C[C@@H](NC(=O)[C@@H](N)Cc1ccc(O)cc1)C(=O)NCC(=O)N(C)[C@@H](Cc1ccccc1)C(=O)N[C@H](CO)CC[S+](C)[O-] (some centres undefined) | U2OS | 98.8
CCN(CC)Cc1nccn1-c1ccc([N+](=O)[O-])cc1C(=O)c1ccccc1Cl | U2OS | 105
Cc1cc(Nc2cc(N3CCN(C)CC3)nc(Sc3ccc(NC(=O)C4CC4)cc3)n2)n[nH]1 | U2OS | 105

# input for lookup
Input line: Suppose we examine the compound CCCN(CCC)C(=O)Cc1c(-c2ccc(Cl)cc2)nc2ccc(Cl)cn12 ; what cell viability value has been reported?
Output line: 92.6

====

Tested on: U2OS
Assay: cell viability relative to DMSO; higher = less toxic
Details: 72 h; 10 nM
This listing pairs molecules with measured cell viability.

// below: answered molecules
molecule | result
Cn1ccc2cc3c(cc21)CCN3C(=O)Nc1cccnc1 | 102%
CSc1ccccc1Nc1nc(N2CCNCC2)nc2c(NCC3CC3)ncnc12 [KHK-IN-1] | 98.7%
C[C@H](NC(=O)c1sccc1OCc1ccc(Cl)cc1)c1ccccc1 | 103%
O=C(COc1ccc(C(=O)c2ccccc2)cc1)NC1CCN(Cc2ccccc2)CC1 [adiporon] | 93.2%
N=C(N)NCCC[C@H](N)C(=O)O [L-arginine] | 94.9%
CC1(C)OC2(C)C(O)CC1CC2O (stereo unspecified) [epomediol] | 97.3%
CCC(CC)n1ccc2c(C(=O)NCc3c(C)cc(C)[nH]c3=O)cc(C#N)cc21 [EI1] | 99.4%
N=C(N)NC(=O)Cc1c(Cl)cccc1Cl [guanfacine] | 93.1%

Input line: Suppose we examine the molecule NC(=O)CCCCn1ccc(/N=C(\N)NCC(F)(F)F)n1 ; what cell viability value has been reported?
Output line: 104%

Input line: Suppose we examine the molecule C[C@H](O)[C@H](O)[C@H]1CNc2nc(N)[nH]c(=O)c2N1 [sapropterin] ; what cell viability value has been reported?
Output line: 95.4%

Input line: Suppose we examine the molecule Nc1ncnc2[nH]nc(Nc3ccc(F)cc3)c12 ; what cell viability value has been reported?
Output line: 98.9%

Input line: Suppose we examine the molecule C[C@H]1[C@H](OC(=O)CCC(=O)O)O[C@@H]2O[C@@]3(C)CC[C@H]4[C@H](C)CC[C@@H]1[C@@]24OO3 [artesunate] ; what cell viability value has been reported?
Output line: 100%

====

Tested on: U2OS
Test: cell viability relative to DMSO; higher = less toxic
Conditions: 72 h; 100 nM
This listing pairs compounds with measured cell viability.
Respond numerically; units are % and should not be typed.

// below: answered compounds
compound | cell viability [%]
Cc1cccc(C)c1NC(=O)C1CCCCN1C (configuration not stated) [mepivacaine] | 99.4
CCCC(C)C1(CC)C(=O)NC(=S)NC1=O (configuration not stated) [thiopental] | 99.9
Oc1c(CN2CCCC2)cc(COCc2ccccc2)c2cccnc12 [UC-112] | 94
CCc1ccc(CCOc2ccc(CC3SC(=O)NC3=O)cc2)nc1 (configuration not stated) [pioglitazone] | 96
COC1=C[C@@H]2[C@@H]3Cc4ccc(OC)c(O)c4[C@]2(CCN3C)CC1=O [sinomenine] | 98.8

Input line: Suppose we examine the compound CC(C)C[C@H](NC(=O)[C@H](CCCCN)NC(=O)[C@H](CCCNC(=N)N)NC(=O)[C@H](C)NC(=O)[C@H](CO)NC(=O)[C@H](CCCCN)NC(=O)[C@H](CCCNC(=N)N)NC(=O)[C@H](C)NC(=O)CNC(=O)[C@@H](NC(=O)[C@H](Cc1ccccc1)NC(=O)CNC(=O)CNC(=O)[C@@H](N)Cc1ccccc1)[C@@H](C)O)C(=O)N[C@@H](C)C(=O)N[C@@H](CC(N)=O)C(=O)N[C@@H](CCC(N)=O)C(=O)O [orphanin-fq] ; what cell viability value has been reported?
Output line: 97.7

Input line: Suppose we examine the compound COc1ccc(CC2NCCc3c2[nH]c2ccc(C)cc32)c(Cl)c1OC (configuration not stated) ; what cell viability value has been reported?
Output line: 98.3
